# tested on: Biotinylated CD33 protein (UniProt P20138)
# Sequence (P20138 18-259 limits assumed): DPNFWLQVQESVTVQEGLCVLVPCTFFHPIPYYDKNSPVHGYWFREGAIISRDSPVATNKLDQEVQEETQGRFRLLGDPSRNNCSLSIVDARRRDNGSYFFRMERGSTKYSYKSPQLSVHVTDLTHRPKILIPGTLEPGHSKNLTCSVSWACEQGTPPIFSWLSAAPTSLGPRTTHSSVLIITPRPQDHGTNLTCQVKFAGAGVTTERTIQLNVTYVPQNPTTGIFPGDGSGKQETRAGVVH
# measurement description: Octet competition on biotinylated CD33; competitor 416
Listing: Octet signal of selected binders
observation type: Octet signal

>>> reported("sdCD33_8 (VHH, sdAb from a naive llama phage library; also called 424; sdAb424) VHH: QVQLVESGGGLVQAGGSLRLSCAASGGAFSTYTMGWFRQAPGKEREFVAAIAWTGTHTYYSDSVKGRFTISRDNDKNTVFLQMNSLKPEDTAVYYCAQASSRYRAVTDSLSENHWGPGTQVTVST")
0.086
>>> reported("sdCD33_9 (VHH, sdAb from a naive llama phage library; also called 426; sdAb426) VHH: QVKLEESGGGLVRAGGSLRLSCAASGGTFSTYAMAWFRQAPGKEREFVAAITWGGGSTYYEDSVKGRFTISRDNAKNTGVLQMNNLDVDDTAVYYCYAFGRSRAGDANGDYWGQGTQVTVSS")
0.304
>>> reported("sdCD33_10 (VHH) VHH: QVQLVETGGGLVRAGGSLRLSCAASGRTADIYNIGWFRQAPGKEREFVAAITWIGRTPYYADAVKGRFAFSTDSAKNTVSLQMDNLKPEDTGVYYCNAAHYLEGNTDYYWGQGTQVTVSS")
0.552
>>> reported("sdCD33_4 (VHH) VHH: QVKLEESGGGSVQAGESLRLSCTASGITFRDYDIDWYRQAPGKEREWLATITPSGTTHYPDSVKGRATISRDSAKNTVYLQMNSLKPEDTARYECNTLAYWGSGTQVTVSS")
-0.28
>>> reported("sdCD33_2 (VHH) VHH: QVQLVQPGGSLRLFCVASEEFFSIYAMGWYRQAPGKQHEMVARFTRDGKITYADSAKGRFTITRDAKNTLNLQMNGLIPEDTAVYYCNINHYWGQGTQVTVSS")
0.0635
>>> reported("sdCD33_7 (VHH, sdAb from a naive llama phage library; also called 420; sdAb420) VHH: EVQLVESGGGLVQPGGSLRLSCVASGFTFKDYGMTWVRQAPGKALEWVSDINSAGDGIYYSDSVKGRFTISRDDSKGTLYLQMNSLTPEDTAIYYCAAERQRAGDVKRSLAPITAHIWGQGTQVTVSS")
-0.094
>>> reported("sdCD33_11 (VHH, sdAb from a naive llama phage library; also called 430; sdAb430) VHH: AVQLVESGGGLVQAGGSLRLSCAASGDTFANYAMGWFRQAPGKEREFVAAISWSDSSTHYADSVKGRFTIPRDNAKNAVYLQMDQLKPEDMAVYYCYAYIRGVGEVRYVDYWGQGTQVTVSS")
-0.268
>>> reported("sdCD33_5 (VHH, sdAb from a naive llama phage library; also called 413; sdAb413) VHH: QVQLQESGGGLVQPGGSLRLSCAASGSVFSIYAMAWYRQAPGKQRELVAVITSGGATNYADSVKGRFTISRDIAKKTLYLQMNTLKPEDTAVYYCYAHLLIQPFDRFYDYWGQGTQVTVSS")
-0.0586
>>> reported("sdCD33_3 (VHH) VHH: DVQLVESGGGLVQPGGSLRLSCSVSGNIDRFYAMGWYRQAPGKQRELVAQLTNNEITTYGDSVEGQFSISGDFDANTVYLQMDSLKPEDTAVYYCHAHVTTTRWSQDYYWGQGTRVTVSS")
-0.0696

The measured values listed here are drawn from patent US20230365675A1.
